# PROTOCOL DESCRIPTION: method code SF-AS, from Fulcrand, P.; Berge, G.; Noel, A. (1978). Hydrazides as monoamine oxidase inhibitors. Hansch and Free Wilson correlations. Eur J Med Chem, 13(2)177-182.
Exercise: for every item that follows, state its recorded logP.
Respond numerically, and do not add a unit to the figure.

Exercise: Quick one: logP for `CC(C)NNC(=O)C(C)(C)Oc1ccc(Cl)cc1` ?
Key: 2.56

Exercise: Quick one: logP for `O=C(COc1ccc(Cl)cc1)NNCc1ccccc1` ?
Key: 2.92

Exercise: Quick one: logP for Cc1ccc(OCC(=O)NNC(C)c2ccccc2)cc1 (stereo not given) ?
Key: 2.87

Exercise: Quick one: logP for CC(C)NNC(=O)C(C)Oc1ccccc1 (stereo not given) ?
Key: 1.39

Exercise: Quick one: logP for `COc1cccc(OCC(=O)NNC(C)C)c1` ?
Key: 1.33
